system: SK-N-SH; test: Growth inhibition of human SK-N-SH cells at 10 uM by sulforhodamine B assay; assay type: functional; conditions: read-out: GI
Each item that follows carries a reported inhibition of growth at 10 µM.

[
  {
    "compound": "O=S1(=O)c2ccccc2N(c2ccccc2)c2nc(-c3cccnc3Nc3ccc(Cl)cc3)nn21",
    "measured-target": "SK-N-SH",
    "inhibition of growth at 10 µM / %": 27
  },
  {
    "compound": "COc1ccc(Nc2ncccc2-c2nc3n(n2)S(=O)(=O)c2ccccc2N3C)cc1",
    "measured-target": "SK-N-SH",
    "inhibition of growth at 10 µM / %": 20
  },
  {
    "compound": "COc1ccc(Nc2ncccc2C(=O)Nc2nc3ccc([N+](=O)[O-])cc3s2)cc1",
    "measured-target": "SK-N-SH",
    "inhibition of growth at 10 µM / %": 64
  },
  {
    "compound": "CN1c2ccccc2S(=O)(=O)n2nc(-c3cccnc3Nc3ccccc3)nc21",
    "measured-target": "SK-N-SH",
    "inhibition of growth at 10 µM / %": 0
  },
  {
    "compound": "O=C(Nc1nc2ccc([N+](=O)[O-])cc2s1)c1cccnc1Nc1ccc(Cl)cc1Cl",
    "measured-target": "SK-N-SH",
    "inhibition of growth at 10 µM / %": 50
  },
  {
    "compound": "O=S1(=O)c2ccccc2N(c2ccccc2)c2nc(-c3cccnc3Nc3ccccc3)nn21",
    "measured-target": "SK-N-SH",
    "inhibition of growth at 10 µM / %": 20
  },
  {
    "compound": "COc1ccc(Nc2ncccc2C(=O)Nc2nc3ccc(OC)cc3s2)cc1",
    "measured-target": "SK-N-SH",
    "inhibition of growth at 10 µM / %": 44
  },
  {
    "compound": "COc1ccc2nc(NC(=O)c3cccnc3Nc3ccc(Cl)cc3)sc2c1",
    "measured-target": "SK-N-SH",
    "inhibition of growth at 10 µM / %": 23
  },
  {
    "compound": "O=c1[nH]cc(F)c(=O)[nH]1 [FLUOROURACIL]",
    "measured-target": "SK-N-SH",
    "inhibition of growth at 10 µM / %": 7
  },
  {
    "compound": "COc1ccc2nc(NC(=O)c3cccnc3Nc3ccc(F)cc3)sc2c1",
    "measured-target": "SK-N-SH",
    "inhibition of growth at 10 µM / %": 24
  }
]

src = ChEMBL document CHEMBL1926589
